Values compiled from ChEMBL document CHEMBL1144914.

# System: CCRF-CEM
# ASSAY PROCEDURE: Cytotoxicity in human leukemic CCRF-CEM cells.
# Assay type: functional, cell-based
OBSERVATION TYPE: pIC50
One number for each entry, as −log10 of the molar value.

Solved entries (count: 4):
{"STRUCTURE STRING": "COc1cc(NS(C)(=O)=O)ccc1Nc1c2ccccc2nc2c(C(N)=O)cccc12", "OBSERVATION TYPE": "pIC50", "RESULT NUMBER": 6.92}
{"STRUCTURE STRING": "CN(C)CCNC(=O)c1cccc2c(NCCNCCNCCNc3c4ccccc4nc4c(C(=O)NCCN(C)C)cccc34)c3ccccc3nc12", "OBSERVATION TYPE": "pIC50", "RESULT NUMBER": 6.23}
{"STRUCTURE STRING": "COc1cc(NS(C)(=O)=O)ccc1Nc1c2ccccc2nc2ccccc12", "OBSERVATION TYPE": "pIC50", "RESULT NUMBER": 6.89}
{"STRUCTURE STRING": "O=C1c2c(O)ccc(O)c2C(=O)c2c(NCCNCCO)ccc(NCCNCCO)c21", "OBSERVATION TYPE": "pIC50", "RESULT NUMBER": 8.44}

Field: next compound
Task item: # lookup: CCRF-CEM pIC50, key = `O=C(NCCN1CCOCC1)c1cccc2c(NCCCCCCCCNc3c4ccccc4nc4c(C(=O)NCCN5CCOCC5)cccc34)c3ccccc3nc12`
Reply: 6.09

---

# System: Nucleic Acid
# ASSAY PROCEDURE: Dissociation time constant (Tau 3) for dissociation of compound and calf thymus DNA complex
# Format: nucleic-acid assay
# EXPERIMENTAL PARAMETERS: Bos taurus
Numbered stars: 1 amine (or outer) side, 2 acyl side, 3 side chain; on linkers, the order of the positions; unused ones are H or OH. Bridge positions count the residues as written; N and C are the ends. Square brackets hold non-standard residues; d marks the D form. Peptide text beside a SMILES is read from it. I, II: the chains in the order shown. Actinocin(1to9) = Cc1c2oc3c(C)ccc(C(=O)[*:2])c3nc-2c(C(=O)[*:1])c(N)c1=O; NMeV = CN[C@H](C(=O)O)C(C)C; Sar = CNCC(=O)O
Time constant less than 200 s is t; Time constant greater than or equal to 200 s is f.

# count of solved cases: 5
{"MOLECULE": "CN(C)CCNC(=O)c1cccc2c(NCCCCCCCCNc3c4ccccc4nc4c(C(=O)NCCN(C)C)cccc34)c3ccccc3nc12", "TARGET UNDER TEST": "Nucleic Acid", "CLASS NAME": "t"}
{"MOLECULE": "O=C(NCCN1CCOCC1)c1cccc2c(NCCCNCCCNc3c4ccccc4nc4c(C(=O)NCCN5CCOCC5)cccc34)c3ccccc3nc12", "TARGET UNDER TEST": "Nucleic Acid", "CLASS NAME": "t"}
{"MOLECULE": "CN(C)CCNC(=O)c1cccc2c(NCCNCCNCCNc3c4ccccc4nc4c(C(=O)NCCN(C)C)cccc34)c3ccccc3nc12", "TARGET UNDER TEST": "Nucleic Acid", "CLASS NAME": "t"}
{"MOLECULE": "CN(C)CCNC(=O)c1cccc2c(NCCN3CCN(CCNc4c5ccccc5nc5c(C(=O)NCCN(C)C)cccc45)CC3)c3ccccc3nc12", "TARGET UNDER TEST": "Nucleic Acid", "CLASS NAME": "f"}
{"MOLECULE": "Cc1c2oc3c(C)ccc(C(=O)N[C@@H]4C(=O)N[C@H](C(C)C)C(=O)N5CCC[C@H]5C(=O)N(C)CC(=O)N(C)[C@@H](C(C)C)C(=O)O[C@@H]4C)c3nc-2c(C(=O)N[C@@H]2C(=O)N[C@H](C(C)C)C(=O)N3CCC[C@H]3C(=O)N(C)CC(=O)N(C)[C@@H](C(C)C)C(=O)O[C@@H]2C)c(N)c1=O [DACTINOMYCIN] (I: T[dV]P[Sar][NMeV] / II: T[dV]P[Sar][NMeV]; ester I:1-I:C, II:1-II:C; linker I:N-II:N via Actinocin(1to9))", "TARGET UNDER TEST": "Nucleic Acid", "CLASS NAME": "f"}

Task item: Would you kindly verify if Time constant of `CN(C)CCNC(=O)c1cccc2c(NCCCNCCCNc3c4ccccc4nc4c(C(=O)NCCN(C)C)cccc34)c3ccccc3nc12` is strictly less than 200 s?
Reply: t
